Below are IC50 values measured for Human PARP1 (Homo sapiens (Human), UniProt P09874).

compound	measured
O=C(c1ccc(OC(F)(F)F)cc1)C1CCN(CC(=O)N(Cc2nc3c(c(=O)[nH]2)COCC3)CC(F)F)CC1 [Example 71]	> 19 µM
C[C@H](C1CC1)N(Cc1nc2c(c(=O)[nH]1)COCC2)C(=O)CN1CCC(C(=O)c2ccc(F)cc2)CC1 [Example 41]	> 19 µM
COCCN(Cc1nc2c(c(=O)[nH]1)COCC2)C(=O)CN1CCC(C(=O)c2ccc(OC)cc2)CC1 [Example 54]	> 19 µM
O=C(c1ccc(F)cc1)C1CCN(CC(=O)N(Cc2ccc(F)cc2)Cc2nc3c(c(=O)[nH]2)COCC3)CC1 [Example 15]	> 19 µM
O=C(c1ccc(F)cc1)C1CCN(CC(=O)N(Cc2nc3c(c(=O)[nH]2)COCC3)Cc2nc3ccccc3s2)CC1 [Example 17]	> 19 µM
CC[C@@H](C)N(Cc1nc2c(c(=O)[nH]1)COCC2)C(=O)CN1CCC(C(=O)c2ccc(F)cc2)CC1 [Example 32]	> 19 µM

// field: IC50; key: O=C(CN1CCC(C(=O)c2ccc3c(c2)CCO3)CC1)NCc1nc2c(c(=O)[nH]1)COCC2 [Example 91] ; value = 16.7 µM

Record summary for CC(C)Oc1ccc(C(=O)C2CCN(CC(=O)NCc3nc4c(c(=O)[nH]3)COCC4)CC2)cc1 [Example 3] : reported IC50 = 5.63 µM
